# inhibition per record follows
Target: UniProt Q07343
Assay: Inhibition of PDE4B (unknown origin) using [3H]cAMP as substrate at 10 uM incubated for 30 mins by scintillation proximity assay relative to control

Example entries and their recorded answers appear below.
INSERT INTO assay_data (compound, endpoint_value) VALUES
  ('C=CCc1c(-c2cccc(NS(=O)(=O)c3ccc(C)cc3)c2)oc(=O)c2cc(F)ccc12', '79.7%'),
  ('C=CCc1c(-c2cccc(NS(=O)(=O)c3cccs3)c2)oc(=O)c2ccc(Cl)cc12', '75.7%'),
  ('C=CCc1c(-c2ccc(NS(=O)(=O)c3ccc(C)cc3)cc2)oc(=O)c2cc(F)ccc12', '94%'),
  ('C=CCc1c(-c2ccc(NS(=O)(=O)c3ccc(C)cc3)cc2)oc(=O)c2ccccc12', '63.5%');

Data request, read-out inhibition, for C=CCc1c(-c2cccc(NS(=O)(=O)c3ccc(C)cc3)c2)oc(=O)c2ccccc12
77.8%

Data request, read-out inhibition, for C=CCc1c(-c2cccc(NS(C)(=O)=O)c2)oc(=O)c2cc(F)ccc12
90.9%

Data request, read-out inhibition, for C=CCc1c(-c2cccc(NS(=O)(=O)c3ccc(OC)cc3)c2)oc(=O)c2ccccc12
80%

====

Molecular target: 3',5'-cyclic-AMP phosphodiesterase 4B (Homo sapiens, UniProt Q07343)
Sequence (Q07343 whole entry): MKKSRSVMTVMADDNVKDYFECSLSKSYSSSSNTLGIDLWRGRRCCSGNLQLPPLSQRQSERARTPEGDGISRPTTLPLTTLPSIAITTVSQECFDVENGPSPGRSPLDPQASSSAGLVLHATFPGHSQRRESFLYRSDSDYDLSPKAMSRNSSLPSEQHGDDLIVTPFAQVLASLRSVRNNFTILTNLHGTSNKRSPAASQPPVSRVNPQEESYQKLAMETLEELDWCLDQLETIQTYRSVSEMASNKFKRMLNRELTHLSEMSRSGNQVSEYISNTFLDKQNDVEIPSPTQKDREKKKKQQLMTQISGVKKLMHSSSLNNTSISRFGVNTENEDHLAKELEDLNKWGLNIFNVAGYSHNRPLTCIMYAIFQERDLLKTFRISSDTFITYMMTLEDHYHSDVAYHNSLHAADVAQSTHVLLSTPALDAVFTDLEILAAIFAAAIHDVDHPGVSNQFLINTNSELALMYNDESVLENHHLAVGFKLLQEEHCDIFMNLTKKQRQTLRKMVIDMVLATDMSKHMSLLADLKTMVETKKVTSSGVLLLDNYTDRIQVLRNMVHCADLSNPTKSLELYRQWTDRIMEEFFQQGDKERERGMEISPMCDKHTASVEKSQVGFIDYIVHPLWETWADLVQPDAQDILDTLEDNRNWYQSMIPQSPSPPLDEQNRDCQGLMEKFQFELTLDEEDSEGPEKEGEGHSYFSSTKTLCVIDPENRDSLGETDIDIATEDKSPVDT
Assay: Inhibition of PDE4B (unknown origin) using [3H]cAMP as substrate at 10 uM incubated for 30 mins by scintillation proximity assay relative to control
# inhibition per record follows
Number plus unit, in that order.

Example entries and their recorded answers appear below.
INSERT INTO results (compound, result_type, endpoint_value) VALUES
  ('C=CCc1c(-c2ccc(NS(C)(=O)=O)cc2)oc(=O)c2ccc(Cl)cc12', 'inhibition', '56%'),
  ('C=CCc1c(-c2cccc(NS(=O)(=O)c3cccs3)c2)oc(=O)c2ccccc12', 'inhibition', '85.9%');

Data request, read-out inhibition, for C=CCc1c(-c2ccc(NS(=O)(=O)c3ccccc3)cc2)oc(=O)c2cc(F)ccc12
94.4%

Data request, read-out inhibition, for C=CCc1c(-c2ccc(NS(=O)(=O)c3ccccc3)cc2)oc(=O)c2ccccc12
87.6%

Data request, read-out inhibition, for C=CCc1c(-c2cccc(NS(C)(=O)=O)c2)oc(=O)c2ccccc12
55.8%

Data request, read-out inhibition, for COc1ccc(C2CNC(=O)C2)cc1OC1CCCC1 (configuration not stated)
77.2%

Data request, read-out inhibition, for C=CCc1c(-c2cccc(NC(=O)c3ccccc3)c2)oc(=O)c2cc(F)ccc12
74.6%

Source listed as ChEMBL document CHEMBL4842324.
